Listed next: entries and their corresponding pIC50.
# target_of_assay: EGFR WT (Ba/F3 cells) (Homo sapiens, UniProt P00533)
# Sequence (P00533 25-1210): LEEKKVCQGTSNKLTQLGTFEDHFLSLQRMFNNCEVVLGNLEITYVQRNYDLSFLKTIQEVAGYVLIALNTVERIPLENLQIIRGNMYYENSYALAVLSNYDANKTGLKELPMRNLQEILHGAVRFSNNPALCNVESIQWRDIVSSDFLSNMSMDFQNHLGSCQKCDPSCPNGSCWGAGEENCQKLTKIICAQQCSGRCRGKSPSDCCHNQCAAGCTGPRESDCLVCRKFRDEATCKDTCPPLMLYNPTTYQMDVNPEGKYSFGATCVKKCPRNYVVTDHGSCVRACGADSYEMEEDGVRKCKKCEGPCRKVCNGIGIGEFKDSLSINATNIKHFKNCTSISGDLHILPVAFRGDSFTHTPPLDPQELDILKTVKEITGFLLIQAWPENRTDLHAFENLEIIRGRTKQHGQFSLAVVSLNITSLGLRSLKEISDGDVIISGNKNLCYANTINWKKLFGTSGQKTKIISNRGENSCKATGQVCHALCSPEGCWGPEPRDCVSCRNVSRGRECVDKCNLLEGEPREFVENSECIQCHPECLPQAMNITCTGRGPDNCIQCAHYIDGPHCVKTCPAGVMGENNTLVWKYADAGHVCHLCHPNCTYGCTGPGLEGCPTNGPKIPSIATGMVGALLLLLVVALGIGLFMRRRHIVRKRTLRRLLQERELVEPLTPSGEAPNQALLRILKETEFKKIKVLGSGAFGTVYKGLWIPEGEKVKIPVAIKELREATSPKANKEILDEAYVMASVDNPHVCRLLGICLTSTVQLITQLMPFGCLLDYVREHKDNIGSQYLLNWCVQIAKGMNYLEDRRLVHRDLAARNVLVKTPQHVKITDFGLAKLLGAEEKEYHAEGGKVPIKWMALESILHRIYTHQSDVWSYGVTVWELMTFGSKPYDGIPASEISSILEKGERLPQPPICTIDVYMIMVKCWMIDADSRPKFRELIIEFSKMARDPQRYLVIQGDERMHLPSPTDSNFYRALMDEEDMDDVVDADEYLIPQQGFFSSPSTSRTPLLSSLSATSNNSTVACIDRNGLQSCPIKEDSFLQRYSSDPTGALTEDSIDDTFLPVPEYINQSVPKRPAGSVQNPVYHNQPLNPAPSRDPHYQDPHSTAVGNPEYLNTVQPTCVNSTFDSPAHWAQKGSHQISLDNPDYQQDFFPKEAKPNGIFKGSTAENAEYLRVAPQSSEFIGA
# experiment_description: Inhibitor activity on EGFR-dependent cell growth (CellTiter-Glo, 72 h), Ba/F3 EGFR WT
# measurement_parameters: read-out: BaF3 WT IC50
pIC50: −log10 of the molar value.

stdin: Entry C=CC(=O)N1CCC2(CC1)CNC(=O)c1c2[nH]c(-c2ccncc2F)c1Nc1ccc(Cl)c(F)c1 [Compound 588] , system EGFR WT (Ba/F3 cells) (Homo sapiens, UniProt P00533): what pIC50 was measured?
stdout: > 7.00

stdin: What reported pIC50 corresponds to CCc1c(F)cccc1Nc1c(-c2ccnc(N)n2)[nH]c2c1C(=O)NCC2 [compound 195] on EGFR WT (Ba/F3 cells) (Homo sapiens, UniProt P00533)?
stdout: 6.00 to 7.00

stdin: # returns recorded pIC50 (system: EGFR WT (Ba/F3 cells) (Homo sapiens, UniProt P00533)) for COc1c(F)cccc1Nc1c(-c2ccnc(C)n2)[nH]c2c1C(=O)NCC21CCN(C(=O)/C=C/CN(C)C)CC1 [compound 649]
stdout: < 6.00

stdin: // map COc1nn(C)cc1Nc1nccc(-c2[nH]c3c(c2Nc2cccc(Cl)c2OC)C(=O)NCC3)n1 [compound 219] to recorded pIC50 (system: EGFR WT (Ba/F3 cells) (Homo sapiens, UniProt P00533))
stdout: > 7.00

stdin: What measured pIC50 is associated with Nc1nccc(-c2[nH]c3c(c2Nc2cccc(Cl)c2F)C(=O)NCC3)n1 [Compound 706] on EGFR WT (Ba/F3 cells) (Homo sapiens, UniProt P00533)?
stdout: 6.00 to 7.00

stdin: pIC50 of COc1ncc2nccc(-c3[nH]c4c(c3Nc3cccc(Cl)c3OC(F)(F)F)C(=O)NCC4)c2n1 [Compound 802] on EGFR WT (Ba/F3 cells) (Homo sapiens, UniProt P00533)?
stdout: < 6.00

Further cases:
stdin: What pIC50 appears in the records for this molecule with EGFR WT (Ba/F3 cells) (Homo sapiens, UniProt P00533)? COc1c(F)cccc1Nc1c(-c2ccncc2F)[nH]c2c1C(=O)NCC2C[C@@H]1COCCO1 (single isomer, unassigned) [Compound 566]
stdout: > 7.00

stdin: Notebook entry, EGFR WT (Ba/F3 cells) (Homo sapiens, UniProt P00533) assay: pIC50 of COc1c(Cl)cccc1Nc1c(-c2ccnc(Nc3cn(C)nn3)n2)[nH]c2c1C(=O)NCC2 [compound 511] = ?
stdout: 6.00 to 7.00

stdin: Could you share what pIC50 was measured for COc1c(Cl)cccc1Nc1c(-c2ccnc(N)n2)[nH]c2c1C(=O)NC[C@H]2C[C@@H]1COCCO1 [Compound 567] , tested on EGFR WT (Ba/F3 cells) (Homo sapiens, UniProt P00533)?
stdout: 6.00 to 7.00

stdin: Lookup: pIC50 / EGFR WT (Ba/F3 cells) (Homo sapiens, UniProt P00533) / C=CC(=O)N1CCC2(CC1)CNC(=O)c1c2[nH]c(-c2ccncc2F)c1Nc1cccc(Br)c1OC [Compound 561]
stdout: 6.00 to 7.00

stdin: Fill in the recorded pIC50 for this molecule, with EGFR WT (Ba/F3 cells) (Homo sapiens, UniProt P00533) as test system: COc1c(F)cccc1Nc1c(-c2ccncc2F)[nH]c2c1C(=O)NC[C@H]2CC1COC1 [469a]
stdout: < 6.00

stdin: API: value(readout= pIC50, system= EGFR WT (Ba/F3 cells) (Homo sapiens, UniProt P00533), query= COc1c(Cl)cccc1Nc1c(-c2ccncc2F)[nH]c2c1C(=O)NC[C@H]2CC1COCCO1 (stereo in doubt) [Compound 480] )
stdout: 6.00 to 7.00

stdin: Recorded pIC50 for COc1ccc2nccc(-c3[nH]c4c(c3Nc3cccc(Cl)c3OC)C(=O)NC[C@@H]4CCF)c2n1 [Compound 744] with EGFR WT (Ba/F3 cells) (Homo sapiens, UniProt P00533), please?
stdout: > 7.00

stdin: Please provide the recorded pIC50 for COc1c(Cl)cccc1Nc1c(-c2ccnc(Nc3cnoc3C)n2)[nH]c2c1C(=O)NCC2 [compound 510] , tested on EGFR WT (Ba/F3 cells) (Homo sapiens, UniProt P00533).
stdout: < 6.00

stdin: Item COc1c(Cl)cccc1Nc1c(-c2ccncc2F)[nH]c2c1C(=O)NC[C@@H]2CCF [compound 813] with EGFR WT (Ba/F3 cells) (Homo sapiens, UniProt P00533) - pIC50?
stdout: < 6.00

stdin: Provide the documented pIC50 with EGFR WT (Ba/F3 cells) (Homo sapiens, UniProt P00533) as the system for COc1c(Cl)cccc1Nc1c(-c2ccnc3ccc(OC4(C)CC4)nc23)[nH]c2c1C(=O)NCC2 [Compound 767]
stdout: > 7.00

stdin: Find pIC50 (EGFR WT (Ba/F3 cells) (Homo sapiens, UniProt P00533)) for the entry COc1c(Cl)cccc1Nc1c(-c2ccnc3[nH]ccc23)[nH]c2c1C(=O)NCC2 [compound 218]
stdout: < 6.00
